# procedure_text: Half life in Sprague-Dawley rat at 10 mg/kg, po by LC/MS/MS analysis
# Type: ADME, organism-based
# details: in vivo
measure: half-life (h)

# compound, value_observed
rows = [
    ("CCCn1c(=O)c2c3c(sc2n2cnnc12)CC(C(C)(C)C)CC3 (stereo in doubt)", 8.89),
]

###

Overview of reported EC50 across a group of molecules:
# Test system: Rhinovirus B
# procedure_text: Antiviral activity against Rhinovirus B91 infected in human H1-HeLa cells assessed as reduction in virus induced cytopathic effect incubated for 3 days by MTT assay
# Format: functional, organism-based
# details: Rhinovirus B, 91, H1-HeLa, 72 h
measure: EC50 (µM)

# molecule, measure, display_unit, value_observed
rows = [
    ("CCCn1c(=O)c2c3c(sc2n2cnnc12)CC(C(C)(C)C)CC3 (stereo in doubt)", "EC50", "µM", 1.7),
    ("Cc1cc(CCCOc2c(C)cc(-c3noc(C(F)(F)F)n3)cc2C)on1", "EC50", "µM", 1.4),
]

###

Overview of reported EC50 across a group of compounds:
# System: rhinovirus B14
# procedure_text: Antiviral activity against Human rhinovirus B14 infected in human H1-HeLa cells assessed as reduction in virus induced cytopathic effect incubated for 3 days by MTT assay
# Type: functional, organism-based
# details: Rhinovirus B, H1-HeLa, 72 h

# compound, rel, EC50 / µM
records = [
    ("CCn1c(=O)c2c3c(sc2n2cnnc12)CC(C(C)(C)C)CC3 (stereo not given)", "=", 14.1),
    ("CC(C)(C)C1CCc2c(sc3c2c(=O)n(-c2ccccc2)c2nncn32)C1 (stereo not given)", "=", 5),
    ("CC(C)(C)C1CCc2c(sc3c2c(=O)n(C2CCCC2)c2nncn32)C1 (stereo not given)", ">", 100),
    ("CC(C)CCn1c(=O)c2c3c(sc2n2cnnc12)CC(C(C)(C)C)CC3 (stereo not given)", ">", 100),
    ("Cn1c(=O)c2c3c(sc2n2cnnc12)CC(C(C)(C)C)CC3 (stereo not given)", ">", 100),
    ("CCCCCCn1c(=O)c2c3c(sc2n2cnnc12)CC(C(C)(C)C)CC3 (stereo not given)", ">", 100),
    ("Cc1cc(CCCOc2c(C)cc(-c3noc(C(F)(F)F)n3)cc2C)on1 [PLECONARIL]", "=", 0.2),
    ("CC(C)(C)C1CCc2c(sc3c2c(=O)n(C2CC2)c2nncn32)C1 (stereo not given)", "=", 15),
    ("CC(C)Cn1c(=O)c2c3c(sc2n2cnnc12)CC(C(C)(C)C)CC3 (stereo not given)", "=", 4.2),
    ("CCCCn1c(=O)c2c3c(sc2n2cnnc12)CC(C(C)(C)C)CC3 (stereo not given)", "=", 2.2),
]

###

# assay_target: UniProt:P08684
# Sequence (P08684 whole entry): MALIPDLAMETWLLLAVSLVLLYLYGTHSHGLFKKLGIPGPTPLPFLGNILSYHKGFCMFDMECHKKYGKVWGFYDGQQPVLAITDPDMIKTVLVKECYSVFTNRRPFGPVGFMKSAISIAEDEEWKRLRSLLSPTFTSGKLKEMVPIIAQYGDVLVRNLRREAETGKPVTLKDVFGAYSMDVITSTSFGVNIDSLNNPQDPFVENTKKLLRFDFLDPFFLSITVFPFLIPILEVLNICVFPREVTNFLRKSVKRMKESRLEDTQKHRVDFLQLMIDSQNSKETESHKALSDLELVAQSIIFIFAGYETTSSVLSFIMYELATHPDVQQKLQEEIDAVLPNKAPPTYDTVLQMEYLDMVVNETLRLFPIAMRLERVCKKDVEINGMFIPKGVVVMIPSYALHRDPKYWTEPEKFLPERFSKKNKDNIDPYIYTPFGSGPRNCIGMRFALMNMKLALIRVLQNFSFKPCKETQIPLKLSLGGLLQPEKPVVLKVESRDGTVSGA
# procedure_text: Inhibition of human CYP3A4 at 10 uM incubated for 20 mins in presence of NADPH regenerating system by luminescence assay relative to control
# Assay type: ADME
measure: inhibition at 20 min, 10 µM (%)

# compound, value_observed
measured = [
    ("CCCn1c(=O)c2c3c(sc2n2cnnc12)CC(C(C)(C)C)CC3 (stereo in doubt)", 3.24),
]

###

# assay_target: CYP2C9 (Homo sapiens, UniProt P11712)
# Sequence (P11712 whole entry): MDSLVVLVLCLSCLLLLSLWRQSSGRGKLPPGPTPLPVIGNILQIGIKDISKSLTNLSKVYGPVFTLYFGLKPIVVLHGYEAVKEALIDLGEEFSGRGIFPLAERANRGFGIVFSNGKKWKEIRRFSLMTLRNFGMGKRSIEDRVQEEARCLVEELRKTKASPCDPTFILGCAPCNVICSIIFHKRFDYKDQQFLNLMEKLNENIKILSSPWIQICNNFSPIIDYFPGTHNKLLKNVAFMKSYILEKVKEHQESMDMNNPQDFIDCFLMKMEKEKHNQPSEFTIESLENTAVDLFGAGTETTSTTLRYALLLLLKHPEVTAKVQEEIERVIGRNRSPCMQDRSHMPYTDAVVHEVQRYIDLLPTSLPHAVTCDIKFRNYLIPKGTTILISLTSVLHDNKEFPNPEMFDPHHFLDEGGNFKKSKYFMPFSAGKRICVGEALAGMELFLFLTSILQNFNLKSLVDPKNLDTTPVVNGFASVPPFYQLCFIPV
# procedure_text: Inhibition of human CYP2C9 at 10 uM incubated for 20 mins in presence of NADPH regenerating system by luminescence assay relative to control
# Format: ADME
Overview of reported inhibition at 20 min, 10 µM across a group of compounds:
measure: inhibition at 20 min, 10 µM (%)

# compound, assay_target, measure, display_unit, value_observed
data = [
    ("CCCn1c(=O)c2c3c(sc2n2cnnc12)CC(C(C)(C)C)CC3 (stereo in doubt)", "CYP2C9 (Homo sapiens, UniProt P11712)", "inhibition at 20 min, 10 µM", "%", 11.9),
    ("Nc1ccc(S(=O)(=O)Nc2ccnn2-c2ccccc2)cc1", "CYP2C9 (Homo sapiens, UniProt P11712)", "inhibition at 20 min, 10 µM", "%", 85.8),
]

Just for reference, ChEMBL document CHEMBL5143628 is where these values come from.
